These measurements were taken from ChEMBL document CHEMBL1153209.

# subject-of-test: Cytochrome P450 3A4 (Homo sapiens, UniProt P08684)
# Sequence (P08684 whole entry): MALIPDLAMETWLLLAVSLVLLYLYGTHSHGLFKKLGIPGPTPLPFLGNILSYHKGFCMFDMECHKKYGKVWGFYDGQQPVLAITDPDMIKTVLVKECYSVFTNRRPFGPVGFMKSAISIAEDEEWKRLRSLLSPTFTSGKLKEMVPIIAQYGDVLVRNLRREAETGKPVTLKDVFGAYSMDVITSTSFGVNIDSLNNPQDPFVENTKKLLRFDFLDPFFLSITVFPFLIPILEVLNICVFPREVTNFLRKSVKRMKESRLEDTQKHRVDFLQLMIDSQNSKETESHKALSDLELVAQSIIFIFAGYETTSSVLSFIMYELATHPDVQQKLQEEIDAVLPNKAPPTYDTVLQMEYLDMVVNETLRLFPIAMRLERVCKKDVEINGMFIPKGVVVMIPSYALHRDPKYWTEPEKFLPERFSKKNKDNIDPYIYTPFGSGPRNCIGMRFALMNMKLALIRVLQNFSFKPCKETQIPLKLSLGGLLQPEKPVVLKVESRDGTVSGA
# measurement-description: Inhibition of CYP3A4
# Format: ADME
pIC50: −log10 of the molar value.

| structure-notation | pIC50 |
| --- | --- |
| FC(F)(F)c1ccccc1OC1CCN(c2ccc(-n3ccnc3)nn2)CC1 | 6.40 |

====

# measurement-description: Half life in rat at 10 mg/kg, po or 2 mg/kg, iv
# Assay type: ADME, organism-based
# reported-conditions: in vivo
Measured half-life values are reported for all entries that follow.

| structure-notation | half-life |
| --- | --- |
| NC(=O)c1ccc(N2CCC(Oc3ccccc3C(F)(F)F)CC2)nn1 | 32.4 min |
| FC(F)(F)c1ccccc1OC1CCN(c2ccc(-n3ccnc3)nn2)CC1 | 72 min |

====

Measured pIC50 values are reported for all entries that follow.
# subject-of-test: Acyl-CoA desaturase 1 (Rattus norvegicus)
# Sequence (P07308 whole entry): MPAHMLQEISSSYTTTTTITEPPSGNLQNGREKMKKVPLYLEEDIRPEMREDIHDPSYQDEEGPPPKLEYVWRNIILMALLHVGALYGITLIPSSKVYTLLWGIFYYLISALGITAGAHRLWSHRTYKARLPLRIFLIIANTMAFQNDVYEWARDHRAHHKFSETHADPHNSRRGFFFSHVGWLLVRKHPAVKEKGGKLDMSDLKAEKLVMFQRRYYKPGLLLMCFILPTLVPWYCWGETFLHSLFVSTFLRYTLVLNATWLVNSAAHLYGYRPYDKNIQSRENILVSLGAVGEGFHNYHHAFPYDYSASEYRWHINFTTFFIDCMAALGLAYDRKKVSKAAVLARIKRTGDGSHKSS
pIC50: −log10 of the molar value.

| structure-notation | pIC50 |
| --- | --- |
| Cc1ccccc1OC1CCN(c2ccc(-n3ccnc3)nn2)CC1 | 7.41 |
| OCc1nnc(-c2ccc(N3CCC(Oc4ccccc4C(F)(F)F)CC3)nn2)s1 | 8.49 |
| CCc1cccc(OC2CCN(c3ccc(-n4ccnc4)nn3)CC2)c1 | 7.42 |
| Brc1ccccc1OC1CCN(c2ccc(-n3ccnc3)nn2)CC1 | 8.30 |

====

# measurement-description: AUC in rat at 10 mg/kg, po
# Format: ADME, organism-based
# Set-up: dose 10 mg/kg, route oral
# reported-conditions: plasma

| structure-notation | unit | AUC |
| --- | --- | --- |
| NC(=O)c1ccc(N2CCC(Oc3ccccc3C(F)(F)F)CC2)nn1 | µM·h | 0.9 |

====

# measurement-description: Oral bioavailability in rat
# Assay type: ADME, organism-based
# reported-conditions: in vivo
reported-property: bioavailability (%)

| structure-notation | reported-property | unit | value |
| --- | --- | --- | --- |
| Cc1nnc(-c2ccc(N3CCC(Oc4ccccc4C(F)(F)F)CC3)nn2)s1 | bioavailability | % | 38 |

====

# measurement-description: Half life in rat
# Format: ADME, organism-based
# reported-conditions: in vivo

| structure-notation | half-life [h] |
| --- | --- |
| Cc1nnc(-c2ccc(N3CCC(Oc4ccccc4C(F)(F)F)CC3)nn2)s1 | 6 |

====

# measurement-description: AUC in rat at 2 mg/kg, iv
# Assay type: ADME, organism-based
# Parameters: dose 2 mg/kg, route intravenous
# reported-conditions: plasma

| structure-notation | AUC (µM·h) |
| --- | --- |
| NC(=O)c1ccc(N2CCC(Oc3ccccc3C(F)(F)F)CC2)nn1 | 1.9 |

====

# measurement-description: Oral bioavailability in mouse
# Type: ADME, organism-based
# reported-conditions: in vivo

| structure-notation | bioavailability, % |
| --- | --- |
| Cc1nnc(-c2ccc(N3CCC(Oc4ccccc4C(F)(F)F)CC3)nn2)s1 | 73 |

====

# subject-of-test: Acyl-CoA desaturase 1 (Rattus norvegicus, UniProt P07308)
# Sequence (P07308 whole entry): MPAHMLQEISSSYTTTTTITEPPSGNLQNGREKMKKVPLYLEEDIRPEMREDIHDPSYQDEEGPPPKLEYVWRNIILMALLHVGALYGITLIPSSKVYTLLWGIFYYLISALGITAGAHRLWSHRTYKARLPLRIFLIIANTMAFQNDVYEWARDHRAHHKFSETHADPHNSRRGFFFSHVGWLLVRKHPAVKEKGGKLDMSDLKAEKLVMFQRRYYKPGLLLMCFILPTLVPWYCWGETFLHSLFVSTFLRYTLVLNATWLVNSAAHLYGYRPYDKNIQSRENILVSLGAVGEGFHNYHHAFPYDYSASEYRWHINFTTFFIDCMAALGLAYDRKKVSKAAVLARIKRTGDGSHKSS
reported-property: IC50 (nM)

| structure-notation | reported-property | unit | value |
| --- | --- | --- | --- |
| Oc1nnc(-c2ccc(N3CCC(Oc4ccccc4C(F)(F)F)CC3)nn2)s1 | IC50 | nM | 6.1 |
| Cc1nnc(-c2ccc(N3CCC(Oc4ccccc4C(F)(F)F)CC3)nn2)o1 | IC50 | nM | 6 |
| CC(C)Cc1nnc(-c2ccc(N3CCC(Oc4ccccc4C(F)(F)F)CC3)nn2)s1 | IC50 | nM | 37 |
| CC(C)(C)c1nnc(-c2ccc(N3CCC(Oc4ccccc4C(F)(F)F)CC3)nn2)s1 | IC50 | nM | 710 |
| Cc1ccc(OC2CCN(c3ccc(-n4ccnc4)nn3)CC2)cc1 | IC50 | nM | 527 |
| FC(F)(F)c1cccc(OC2CCN(c3ccc(-n4ccnc4)nn3)CC2)c1 | IC50 | nM | 19 |
| NC(=O)c1ccc(N2CCC(Oc3ccccc3C(F)(F)F)CC2)nn1 | IC50 | nM | 16 |
| O=C(NCCC1CC1)c1ccc(N2CCN(C(=O)c3ccccc3C(F)(F)F)CC2)nn1 | IC50 | nM | 322 |
| FC(F)(F)c1ccc(OC2CCN(c3ccc(-n4ccnc4)nn3)CC2)cc1 | IC50 | nM | 371 |
| c1cc2c(c(OC3CCN(c4ccc(-n5ccnc5)nn4)CC3)c1)CCC2 | IC50 | nM | 10 |
